Here the recorded activity, negative = inhibition is given for each entry.
- measured.target: Cytochrome P450 2C19 (Homo sapiens)
- protocol.summary: Cytochrome panel assay with activity outcomes; on activity, negative = inhibition: on the % scale 0 is the no-effect control and ±100 the full control effect
- protocol.conditions: recombinant CYP, pro-luciferin dealkylation, luminescence, p450-cyp2c19; series mostly up to 57.1 µM
Screen size: about 16,000 compounds; about 5,800 (36%) were called active. Inconclusive results (about 23%) are left out. Some of the results follow.
measured.property: activity, negative = inhibition

- molecule: "Oc1ccc(Cl)cc1C=Nc1cnc2ccccc2c1"
  measured.target: "Cytochrome P450 2C19 (Homo sapiens)"
  reported: "-4.43% [at 11.4 µM] (inactive)"
- molecule: "CC(C)C12CC[C@@]3(CC[C@H]4[C@@](C)(CCC[C@]4(C)C(=O)O)[C@@H]3C1)[C@@H](CN)C2"
  measured.target: "Cytochrome P450 2C19 (Homo sapiens)"
  reported: "8.51% [at 11.4 µM] (inactive)"
- molecule: "Nc1ncnc2c1nc(-c1ccccc1)n2[C@H]1O[C@@H](CO)[C@@H](O)[C@H]1O"
  measured.target: "Cytochrome P450 2C19 (Homo sapiens)"
  reported: "-0.591% [at 11.4 µM] (inactive)"
- molecule: "CC(=NCC(=O)O)c1ccccc1"
  measured.target: "Cytochrome P450 2C19 (Homo sapiens)"
  reported: "0.942% [at 11.4 µM] (inactive)"
- molecule: "COc1nc(Cl)nc(Cl)c1Cl (tested in a mixture with another compound)"
  measured.target: "Cytochrome P450 2C19 (Homo sapiens)"
  reported: "-12.4% [at 11.4 µM] (inactive)"
- molecule: "CO[C@@H]1COC(=O)[C@@H](C)NC(=O)C/C=C\\[C@@H](C)[C@H](NS(=O)(=O)c2ccc(C)cc2)COC(=O)[C@H](C)NC(=O)C/C=C\\[C@H]1C"
  measured.target: "Cytochrome P450 2C19 (Homo sapiens)"
  reported: "1.72% [at 11.4 µM] (inactive)"
- molecule: "CO[C@@H]1COC(=O)CC=C[C@@H](C)[C@@H]2C=C[C@@H](O)[C@@H](COC(=O)C/C=C\\[C@H]1C)O2"
  measured.target: "Cytochrome P450 2C19 (Homo sapiens)"
  reported: "-8% [at 11.4 µM] (inactive)"
- molecule: "O=C1[C@H]2[C@H]3[C@H](O)[C@H](O)C/C(=N/OCc4ccccc4)[C@@H]3CC[C@@H]2C(=O)N1C[C@@H]1CCCO1"
  measured.target: "Cytochrome P450 2C19 (Homo sapiens)"
  reported: "-0.01% [at 11.4 µM] (inactive)"

----------
- measured.target: Cytochrome P450 2C19 (Homo sapiens)
- protocol.summary: Cytochrome panel assay with activity outcomes
- protocol.conditions: recombinant CYP, pro-luciferin dealkylation, luminescence, p450-cyp2c19; series mostly up to 57.1 µM
Among all 16,000 compounds or so, about 5,800 (36%) were called active. About 23% were inconclusive and are not listed. The list shows a part of the results.
measured.property: AC50

- compound: "c1nc(NC2CCNCC2)c2cc(-c3ccc4c(c3)OCO4)ccc2n1"
  reported: "inactive"
- compound: "COc1cc(O)oc1C=Nc1ccc(Cl)cc1"
  reported: "6.31 µM (active)"
- compound: "COc1cc(O)oc1C=Nc1ccc(C(F)(F)F)cc1"
  reported: "7.08 µM (active)"
- compound: "Cc1cc(-c2cc(C)c(O)c(C(C)(C)C)c2)cc(C(C)(C)C)c1O"
  reported: "1 µM (active)"
- compound: "COc1cccc(-c2ccc3ncnc(NC4CCNCC4)c3c2)c1"
  reported: "6.31 µM (active)"
- compound: "CCN1CCc2nc(NC(=O)c3ccc4c(c3)OCCO4)sc2C1"
  reported: "15.8 µM (active)"
- compound: "Cn1c(OCc2ccc3c(c2)OCO3)nc2c1c(=O)n(Cc1ccc(Cl)c(Cl)c1)c(=O)n2C"
  reported: "10 µM (active)"
- compound: "c1nc(NC2CCNCC2)c2cc(-c3ccoc3)ccc2n1"
  reported: "inactive"
- compound: "c1cncc(-c2ccc3ncnc(NC4CCNCC4)c3c2)c1"
  reported: "inactive"
- compound: "Oc1c(Br)cc(Br)cc1CN(Cc1cc(Br)cc(Br)c1O)C1CCCCC1"
  reported: "0.316 µM (active)"
- compound: "CN(C)c1ccc(-c2ccc3ncnc(NC4CC4)c3c2)cc1"
  reported: "inactive"
- compound: "O=C(Nc1cccc(OC(=O)c2cccnc2)c1)c1cccnc1"
  reported: "inactive"
- compound: "COc1cccc(-c2ccc3ncnc(NC4CC4)c3c2)c1"
  reported: "1.26 µM (active)"
- compound: "CN(Cc1cc(C(C)(C)C)cc(Br)c1O)Cc1cc(C(C)(C)C)cc(Br)c1O"
  reported: "3.16 µM (active)"
- compound: "Cc1ccc(NC(=O)CCSc2nnc3ccccn23)cc1"
  reported: "0.794 µM (active)"
- compound: "Cc1nc2c(ccc3nc(NC(=O)c4ccc5c(c4)OCCO5)sc32)s1"
  reported: "2.51 µM (active)"
- compound: "COc1ccc(C(=O)Nc2cccc(OC(=O)c3ccc(C)c(C)c3)c2)cc1"
  reported: "7.94 µM (active)"
- compound: "CCN1CCC[C@@H](OC(=O)C(c2ccccc2)c2ccccc2)C1"
  reported: "inactive"
- compound: "CCN(CC)C(=O)C1CCCN(c2ccc([N+](=O)[O-])cc2/C=N/NC(=O)c2ccc([N+](=O)[O-])cc2)C1 (configuration not stated)"
  reported: "14.1 µM (active)"
- compound: "Cc1noc(C)c1-c1ccc2ncnc(NC3CCNCC3)c2c1"
  reported: "15.8 µM (active)"
- compound: "Cc1nn(Cc2ccc(Cl)cc2)c(C)c1NC(=O)CSc1nc2c(c(C(F)(F)F)n1)CCc1ccccc1-2"
  reported: "2.82 µM (active)"
- compound: "CCOc1[nH]n(-c2ccc(Cl)cc2)c(=O)c1C=Nc1ccc(O)cc1"
  reported: "inactive"
